Below: a set of entries, each annotated with reported viability at 28.5 h, 10 µM.
# Protocol summary: in vitro
# Measurement setup: human, hela cells, % viability
Property: viability at 28.5 h, 10 µM (%)

[[record]]
compound = "O=C(CCCCCN1C(=O)c2ccccc2C1=O)Nc1cccc(C(=O)O)c1"
value_reported = 85.4

[[record]]
compound = "CN(CP(=O)(O)CCc1ccccc1)S(C)(=O)=O"
value_reported = 95.1

[[record]]
compound = "NC(=O)CSc1nnc(SCc2cccc3ccccc23)s1"
value_reported = 106

[[record]]
compound = "OCCC1CNCCN1Cc1ccc(F)c(F)c1 (stereo not drawn)"
value_reported = 85.6

[[record]]
compound = "O=C(O)[C@@H]1CCN(Cc2ccccc2)C[C@H]1c1ccccc1"
value_reported = 102

[[record]]
compound = "O=C(Nc1ccc(Cc2ccncc2)cc1)c1sc2c([N+](=O)[O-])cccc2c1Cl"
value_reported = 97.1

[[record]]
compound = "O=C1/C(=C/c2c(NCCc3ccccc3)nc3ccccn3c2=O)SC(=S)N1Cc1ccco1"
value_reported = 96.4

[[record]]
compound = "C#CCNC(=O)[C@H]1O[C@H](CCN2CCCCC2)CC[C@@H]1O"
value_reported = 101

[[record]]
compound = "CC1CCN(Cc2ccc(-c3nnn(CC(=O)NCc4ccc(O)cc4)n3)cc2)CC1 [CBK144156C]"
value_reported = 90.9

[[record]]
compound = "COc1ccc(CNC(=O)C2CCCN(S(C)(=O)=O)C2)cc1OC (stereo not drawn)"
value_reported = 90.2

[[record]]
compound = "O=C(O)c1sccc1S(=O)(=O)NCc1ccc(Cn2cccn2)cc1"
value_reported = 99.4

[[record]]
compound = "CCN(Cc1ccncc1)C(=O)NC(C)c1ccccc1 (stereo not drawn)"
value_reported = 101

[[record]]
compound = "CCCCCOc1ccc(Nc2cc(-c3ccc(N(C)C)cc3)ncn2)cc1"
value_reported = 106

[[record]]
compound = "Cc1cnc(C)c(N2CCN(C(=O)NCCSc3nncn3C)CC2)n1"
value_reported = 92.9

[[record]]
compound = "COc1ccccc1-c1cnc(N)c(N[C@@H](C)c2ccccc2)n1"
value_reported = 107

[[record]]
compound = "Cc1cc(CN(C)Cc2c(C)nc3ccc(Cl)cn23)n[nH]1"
value_reported = 108

[[record]]
compound = "CC(C)Nc1cc(SC2CCCCC2)ncn1"
value_reported = 92.4

[[record]]
compound = "c1coc(C2N3CCC4(CC3)c3[nH]c5ccccc5c3CCN24)c1 (stereo not drawn)"
value_reported = 112

[[record]]
compound = "CC1CCCCC1NC(=O)c1ncoc1-c1cccs1 (stereo not drawn)"
value_reported = 84.8

[[record]]
compound = "CC1CCC(C(C)C)C(OC(=O)C(C)O)C1 (stereo not drawn)"
value_reported = 81.6

[[record]]
compound = "CCOC(=O)C(CNS(=O)(=O)c1ccc(F)cc1C)Cc1ccccc1 (stereo not drawn)"
value_reported = 92.3

[[record]]
compound = "CS(=O)(=O)N1CC2(CCN(CCO)CC2)c2ccccc21"
value_reported = 94.5

[[record]]
compound = "Cn1c(=O)n(C)c2cc(CNCc3cccnc3)ccc21 [CBK268432C]"
value_reported = 99.1

[[record]]
compound = "Cc1oc(NC(=O)CN(C)Cc2cccc(F)c2)c(C#N)c1C"
value_reported = 90.9

[[record]]
compound = "Cc1nnc(SCC(=O)N/N=C/c2coc3ccccc3c2=O)n1-c1ccccc1"
value_reported = 90.3

[[record]]
compound = "Cc1cc(C(F)(F)F)n2ncc(C(=O)N3CCCC3c3ccco3)c2n1 (stereo not drawn)"
value_reported = 93.5

[[record]]
compound = "COc1cc2[nH]c(=S)n3nc(-c4ccncc4)nc3c2cc1OC"
value_reported = 104

[[record]]
compound = "CCn1cc(CN2CCCN(C(=O)c3ccc(Cl)cn3)CC2)cn1"
value_reported = 84.3

[[record]]
compound = "CCn1nnnc1NCc1ccc(OCc2ccc(F)cc2Cl)c(OC)c1"
value_reported = 112

[[record]]
compound = "COc1csc(C(=O)Nc2ncn(CC(=O)N3CCCCCC3)n2)c1"
value_reported = 84.6

[[record]]
compound = "NC1CCN(C(=O)Cn2c3ccccc3c(=O)c3ccccc32)C1 (stereo not drawn) [CBK304300C]"
value_reported = 94.3

[[record]]
compound = "COc1ccc(-c2cc(C(=O)Nc3c(C)cccc3C)n[nH]2)c(OC)c1"
value_reported = 107

[[record]]
compound = "Cc1ccc(C(=O)NC[C@H]2O[C@@H](CC(=O)N3CCOCC3)[C@H](O)[C@@H]2O)cc1"
value_reported = 85.5

[[record]]
compound = "COC(=O)CC1(C)C(=O)CCC2(C)C1=CCc1ccccc12 (stereo not drawn)"
value_reported = 105

[[record]]
compound = "CC(C)CCNC(=O)N(CCc1ccccc1)Cc1ccccc1"
value_reported = 90.8

[[record]]
compound = "c1ccc2c(-c3ccc(OC4CCNCC4)cc3)cncc2c1"
value_reported = 112

[[record]]
compound = "FC(F)(F)c1ccc(N2CCNCC2)nc1OCCOc1ccc2ccccc2c1 [CBK200002A]"
value_reported = 92.1

[[record]]
compound = "O=C(Nc1ccc(C(F)(F)F)cc1)C1=C(O)CN(c2ccc(Cl)cc2)C1=O"
value_reported = 84.8

[[record]]
compound = "COc1ccccc1CN(C)C(=O)CCc1ccc(S(N)(=O)=O)cc1"
value_reported = 86.8


These entries and their values trace back to paper PMC12040169.
